Where do these numbers come from? They come from the array DNA melting data of Ke et al. (doi:10.1101/2024.01.08.574731).

Assay: melting temperature; fluorescence melt of hairpins on a sequencing array, two-state fit, raised by 9.35 °C to match UV melts
Details: sodium 0.088 M
Result type: Tm (°C)
Please reply with the bare figure in °C and do not write the unit itself.

Some entries whose results are on file:
GTCACCGAAAGGTAGGAC ((((((....)))..))); 37.4
GTATACGAAAGTACATAC ((((((....)))..))); 21.3
GCCTTGTCGAAAGACGGC (((..(((....)))))); 47.8
GACACGCGAAAGCGAGTC (((.(((....))).))); 60.5
GGGCTCCGAAAGGACCCC (((.(((....))).))); 53.9

Now examine the next entry.
For GATCTGAACACAGATC ((((((....)))))) the sequence record lists Tm as 48.4
